The values you see were collected from patent US8946296B2.

# key: entry, value: Ki
Biological target: MAO-B (Homo sapiens, UniProt P27338)
Sequence (P27338 1-520): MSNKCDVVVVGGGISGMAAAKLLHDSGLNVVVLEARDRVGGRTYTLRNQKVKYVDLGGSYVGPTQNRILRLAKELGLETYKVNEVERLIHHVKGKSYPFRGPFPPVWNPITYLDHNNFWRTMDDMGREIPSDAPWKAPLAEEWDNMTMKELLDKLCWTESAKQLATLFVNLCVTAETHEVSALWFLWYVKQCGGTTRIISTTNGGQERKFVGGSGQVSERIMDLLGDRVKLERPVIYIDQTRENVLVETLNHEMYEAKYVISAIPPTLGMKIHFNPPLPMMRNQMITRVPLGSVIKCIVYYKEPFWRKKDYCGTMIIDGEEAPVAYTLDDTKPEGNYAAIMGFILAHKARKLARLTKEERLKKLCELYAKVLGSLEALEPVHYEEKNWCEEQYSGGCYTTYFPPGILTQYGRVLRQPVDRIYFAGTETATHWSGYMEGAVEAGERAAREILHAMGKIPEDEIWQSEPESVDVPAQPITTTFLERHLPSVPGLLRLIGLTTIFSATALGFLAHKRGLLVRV
Assay: Monoamine oxidase assay, MAO-B (kynuramine to 4-hydroxyquinoline fluorescence)
Conditions: Ki (IC50) range class; human recombinant MAO-B, kynuramine substrate
Where a name gives a salt, the structure may show the parent alone.
measured_endpoint: Ki

[[record]]
compound = "NC(=O)CN[C@@H]1C[C@H]1c1ccc(OCc2ccc(Cl)cc2)cc1 (relative stereo) [Example 7, hydrochloride]"
measured_endpoint = "Ki"
assay_result = "100 to 500 nM"

[[record]]
compound = "NC(=O)CN[C@@H]1C[C@H]1c1ccc(OCc2ccccc2)cc1 (relative stereo)"
measured_endpoint = "Ki"
assay_result = "100 to 500 nM"

[[record]]
compound = "NC(=O)CN[C@@H]1C[C@H]1c1ccc(OCc2cccc(Br)c2)cc1 (relative stereo)"
measured_endpoint = "Ki"
assay_result = "100 to 500 nM"

[[record]]
compound = "NC(=O)CN[C@@H]1C[C@H]1c1ccc(-c2cccc(C(F)(F)F)c2)cc1 (relative stereo)"
measured_endpoint = "Ki"
assay_result = "100 to 500 nM"

[[record]]
compound = "NC(=O)CN[C@@H]1C[C@H]1c1ccc(-c2ccc(Cl)cc2)nc1 (relative stereo)"
measured_endpoint = "Ki"
assay_result = "500 to 5000 nM"

[[record]]
compound = "NC(=O)CN[C@H]1C[C@@H]1c1ccc(-c2ccc(-c3ccccc3)cc2)cc1 (stereo in doubt)"
measured_endpoint = "Ki"
assay_result = "100 to 500 nM"

[[record]]
compound = "NC(=O)CN[C@@H]1C[C@H]1c1ccc(OCc2cccc(Cl)c2)cc1 (relative stereo) [Example 6, hydrochloride]"
measured_endpoint = "Ki"
assay_result = "100 to 500 nM"

[[record]]
compound = "NC(=O)CN[C@@H]1C[C@H]1c1ccc(OCc2cc(F)cc(F)c2)cc1 (relative stereo)"
measured_endpoint = "Ki"
assay_result = "100 to 500 nM"

[[record]]
compound = "NC(=O)CN[C@@H]1C[C@H]1c1ccc(OCCc2ccccc2)cc1 (relative stereo)"
measured_endpoint = "Ki"
assay_result = "100 to 500 nM"

[[record]]
compound = "N#Cc1cccc(COc2ccc([C@@H]3C[C@H]3NCC(N)=O)cc2)c1 (relative stereo) [Example 2, hydrochloride]"
measured_endpoint = "Ki"
assay_result = "100 to 500 nM"

[[record]]
compound = "NC(=O)CN[C@@H]1C[C@H]1c1ccc(OCc2cccc(F)c2)cc1 (relative stereo) [Example 5, hydrochloride]"
measured_endpoint = "Ki"
assay_result = "100 to 500 nM"

[[record]]
compound = "N#Cc1ccc(COc2ccc([C@@H]3C[C@H]3NCC(N)=O)cc2)cc1 (relative stereo) [Example 1, hydrochloride]"
measured_endpoint = "Ki"
assay_result = "100 to 500 nM"

[[record]]
compound = "NC(=O)CN[C@@H]1C[C@H]1c1ccc(OCc2ccc(F)cc2)cc1 (relative stereo) [Example 4, hydrochloride]"
measured_endpoint = "Ki"
assay_result = "100 to 500 nM"


====

Biological target: MAO-A (Homo sapiens)
Experiment: Monoamine oxidase assay, MAO-A (kynuramine to 4-hydroxyquinoline fluorescence)
Conditions: Ki (IC50) range class; human recombinant MAO-A, kynuramine substrate
Where a name gives a salt, the structure may show the parent alone.
measured_endpoint: Ki

[[record]]
compound = "NC(=O)CN[C@@H]1C[C@H]1c1ccc(OCc2ccc(Cl)cc2)cc1 (relative stereo) [Example 7, hydrochloride]"
assay_result = "> 40 µM"

[[record]]
compound = "NC(=O)CN[C@@H]1C[C@H]1c1ccc(-c2cccc(C(F)(F)F)c2)cc1 (relative stereo)"
assay_result = "5 to 40 µM"

[[record]]
compound = "NC(=O)CN[C@@H]1C[C@H]1c1ccc(OCc2cccc(Cl)c2)cc1 (relative stereo) [Example 6, hydrochloride]"
assay_result = "> 40 µM"

[[record]]
compound = "NC(=O)CN[C@@H]1C[C@H]1c1ccc(-c2ccc(Cl)cc2)nc1 (relative stereo)"
assay_result = "0.5 to 5 µM"

[[record]]
compound = "NC(=O)CN[C@@H]1C[C@H]1c1ccc(OCc2cc(F)cc(F)c2)cc1 (relative stereo)"
assay_result = "5 to 40 µM"

[[record]]
compound = "NC(=O)CN[C@@H]1C[C@H]1c1ccc(OCc2cccc(F)c2)cc1 (relative stereo) [Example 5, hydrochloride]"
assay_result = "5 to 40 µM"

[[record]]
compound = "NC(=O)CN[C@@H]1C[C@H]1c1ccc(OCCc2ccccc2)cc1 (relative stereo)"
assay_result = "5 to 40 µM"

[[record]]
compound = "NC(=O)CN[C@@H]1C[C@H]1c1ccc(OCc2ccccc2)cc1 (relative stereo)"
assay_result = "5 to 40 µM"

[[record]]
compound = "NC(=O)CN[C@@H]1C[C@H]1c1ccc(OCc2cccc(Br)c2)cc1 (relative stereo)"
assay_result = "5 to 40 µM"


====

Target: LSD1 (Homo sapiens, UniProt O60341)
Where a name gives a salt, the structure may show the parent alone.
# key: entry, value: Ki
measured_endpoint: Ki

[[record]]
compound = "NC(=O)CN[C@@H]1C[C@H]1c1ccc(OCc2ccc(F)cc2)cc1 (relative stereo) [Example 4, hydrochloride]"
measured_endpoint = "Ki"
assay_result = "100 to 500 nM"

[[record]]
compound = "NC(=O)CN[C@H]1C[C@@H]1c1ccc(-c2ccc(-c3ccccc3)cc2)cc1 (stereo in doubt)"
measured_endpoint = "Ki"
assay_result = "100 to 500 nM"

[[record]]
compound = "NC(=O)CN[C@@H]1C[C@H]1c1ccc(OCc2cccc(Cl)c2)cc1 (relative stereo) [Example 6, hydrochloride]"
measured_endpoint = "Ki"
assay_result = "10 to 100 nM"

[[record]]
compound = "NC(=O)CN[C@@H]1C[C@H]1c1ccc(OCCc2ccccc2)cc1 (relative stereo)"
measured_endpoint = "Ki"
assay_result = "10 to 100 nM"

[[record]]
compound = "N#Cc1cccc(COc2ccc([C@@H]3C[C@H]3NCC(N)=O)cc2)c1 (relative stereo) [Example 2, hydrochloride]"
measured_endpoint = "Ki"
assay_result = "10 to 100 nM"

[[record]]
compound = "NC(=O)CN[C@@H]1C[C@H]1c1ccc(OCc2cc(F)cc(F)c2)cc1 (relative stereo)"
measured_endpoint = "Ki"
assay_result = "10 to 100 nM"

[[record]]
compound = "NC(=O)CN[C@@H]1C[C@H]1c1ccc(OCc2cccc(F)c2)cc1 (relative stereo) [Example 5, hydrochloride]"
measured_endpoint = "Ki"
assay_result = "10 to 100 nM"

[[record]]
compound = "NC(=O)CN[C@@H]1C[C@H]1c1ccc(OCc2ccc(Cl)cc2)cc1 (relative stereo) [Example 7, hydrochloride]"
measured_endpoint = "Ki"
assay_result = "100 to 500 nM"

[[record]]
compound = "N#Cc1ccc(COc2ccc([C@@H]3C[C@H]3NCC(N)=O)cc2)cc1 (relative stereo) [Example 1, hydrochloride]"
measured_endpoint = "Ki"
assay_result = "10 to 100 nM"


====

# key: entry, value: pKi
Biological target: MAO-A (Homo sapiens)
Sequence (P21397 1-527): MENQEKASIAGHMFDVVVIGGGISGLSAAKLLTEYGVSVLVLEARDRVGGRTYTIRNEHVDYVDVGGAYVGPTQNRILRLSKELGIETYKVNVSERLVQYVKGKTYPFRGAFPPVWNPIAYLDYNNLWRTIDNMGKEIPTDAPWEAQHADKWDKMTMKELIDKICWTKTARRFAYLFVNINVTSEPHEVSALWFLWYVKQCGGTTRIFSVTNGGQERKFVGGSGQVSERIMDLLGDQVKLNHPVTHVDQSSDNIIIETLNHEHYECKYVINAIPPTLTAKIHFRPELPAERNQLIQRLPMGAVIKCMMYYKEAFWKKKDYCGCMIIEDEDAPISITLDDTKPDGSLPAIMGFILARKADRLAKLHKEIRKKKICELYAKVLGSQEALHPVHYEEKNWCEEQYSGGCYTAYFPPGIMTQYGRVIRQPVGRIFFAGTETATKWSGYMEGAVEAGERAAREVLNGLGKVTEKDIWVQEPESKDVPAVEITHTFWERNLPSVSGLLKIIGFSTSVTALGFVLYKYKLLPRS
Assay: Monoamine oxidase assay, MAO-A (kynuramine to 4-hydroxyquinoline fluorescence)
Conditions: Ki (IC50) range class; human recombinant MAO-A, kynuramine substrate
pKi: −log10 of the molar value. Structures can show the parent of a compound that is named as a salt.
measured_endpoint: pKi

[[record]]
molecule = "NC(=O)CN[C@@H]1C[C@H]1c1ccc(OCc2ccc(F)cc2)cc1 (relative stereo) [Example 4, hydrochloride]"
system = "MAO-A (Homo sapiens)"
measured_endpoint = "pKi"
assay_result = "< 4.40"

[[record]]
molecule = "NC(=O)CN[C@H]1C[C@@H]1c1ccc(-c2ccc(-c3ccccc3)cc2)cc1 (stereo in doubt) [Example 12]"
system = "MAO-A (Homo sapiens)"
measured_endpoint = "pKi"
assay_result = "< 4.40"

[[record]]
molecule = "N#Cc1ccc(COc2ccc([C@@H]3C[C@H]3NCC(N)=O)cc2)cc1 (relative stereo) [Example 1, hydrochloride]"
system = "MAO-A (Homo sapiens)"
measured_endpoint = "pKi"
assay_result = "4.40 to 5.30"

[[record]]
molecule = "N#Cc1cccc(COc2ccc([C@@H]3C[C@H]3NCC(N)=O)cc2)c1 (relative stereo) [Example 2, hydrochloride]"
system = "MAO-A (Homo sapiens)"
measured_endpoint = "pKi"
assay_result = "5.30 to 6.30"

